System: NCI-H1993
Test: relative viability (nuclei count vs DMSO), 5 days (fraction); higher = more cells survive
Conditions: first compound 2 µM
We label by threshold. Values of relative viability strictly beneath 0.7 are label 1. Values of 0.7 and up are label 0.

Example results:
{"COMPOUND": "COCC1(CO)C(=O)C2CCN1CC2 (stereo not given) [PRIMA-1MET] + CCNC(=O)c1noc(-c2cc(C(C)C)c(O)cc2O)c1-c1ccc(CN2CCOCC2)cc1 [Luminespib] (partner 0.01 µM)", "TARGET DESC": "NCI-H1993", "CLASS ASSIGNMENT": "label 0"}
{"COMPOUND": "COCC1(CO)C(=O)C2CCN1CC2 (stereo not given) [PRIMA-1MET] + Nc1nc2[nH]cc(CCc3ccc(C(=O)N[C@@H](CCC(=O)O)C(=O)O)cc3)c2c(=O)[nH]1 [Pemetrexed] (partner 0.2 µM)", "TARGET DESC": "NCI-H1993", "CLASS ASSIGNMENT": "label 1"}
{"COMPOUND": "COCC1(CO)C(=O)C2CCN1CC2 (stereo not given) [PRIMA-1MET] + Cc1nc(Nc2ncc(C(=O)Nc3c(C)cccc3Cl)s2)cc(N2CCN(CCO)CC2)n1 [Dasatinib] (partner 0.075 µM)", "TARGET DESC": "NCI-H1993", "CLASS ASSIGNMENT": "label 1"}
{"COMPOUND": "COCC1(CO)C(=O)C2CCN1CC2 (stereo not given) [PRIMA-1MET] + CC1(C)CCC(c2ccc(Cl)cc2)=C(CN2CCN(c3ccc(C(=O)NS(=O)(=O)c4ccc(N[C@H](CCN5CCOCC5)CSc5ccccc5)c(S(=O)(=O)C(F)(F)F)c4)cc3)CC2)C1 [Navitoclax] (partner 0.5 µM)", "TARGET DESC": "NCI-H1993", "CLASS ASSIGNMENT": "label 0"}

Now take the following compound into account.
Lookup: # strict comparison: is reported relative viability < 0.7? input = COCC1(CO)C(=O)C2CCN1CC2 (stereo not given) [PRIMA-1MET] + CS(=O)(=O)N1CCN(Cc2cc3nc(-c4cccc5[nH]ncc45)nc(N4CCOCC4)c3s2)CC1 [Pictilisib] (partner 1 µM)
Found: label 0
